Experiment: Pharmacokinetic experiment in rats
Type: in vivo
Conditions: rat, iv; male SD rats, intravenously 1 mg/kg, plasma
parameter-measured: clearance (mL/min/kg)

Cn1c(=O)oc2ccc(-c3ccc(C[C@@H](C#N)NC(=O)[C@@H]4CNCCCO4)c(F)c3)cc21 [Compound 1]    1.66
Cn1c(=O)oc2ccc(-c3ccc(C[C@@H](C#N)NC(=O)[C@@H]4CNCCCO4)cc3)cc21 [INS1007, reference compound]    2.08

* * *

Experiment: Pharmacokinetic experiment in rats
Assay type: in vivo
Conditions: rat, iv; male SD rats, intravenously 1 mg/kg, plasma; read-out: Vdss
parameter-measured: Vd (L/kg)

Cn1c(=O)oc2ccc(-c3ccc(C[C@@H](C#N)NC(=O)[C@@H]4CNCCCO4)cc3)cc21 [INS1007, reference compound]    0.738
Cn1c(=O)oc2ccc(-c3ccc(C[C@@H](C#N)NC(=O)[C@@H]4CNCCCO4)c(F)c3)cc21 [Compound 1]    0.753
